Reference source for all entries: the supplement of paper PMC11616607

# Test system: CAOV3
# PROTOCOL: drug sensitivity score (DSS) from 5-point dose-response viability curve (DSS (area-under-curve based score)); higher = more sensitive (stronger growth inhibition or killing); extreme values may be limits of the assay
# RUN_PARAMETERS: exposure time: 72 h; concentration range: 5 concentrations over 10,000-fold range
Recorded drug sensitivity score determines the label; the label ranges are label 0 = under 2, label 1 = from 2 up to 7, label 2 = 7 and over

Query :: Which drug sensitivity score band matches CC(=O)N(O)CCCCCNC(=O)CCC(=O)N(O)CCCCCNC(=O)CCC(=O)N(O)CCCCCN [Deferoxamine] ?
Result :: label 1

Query :: Which drug sensitivity score band matches NC(=O)Nc1cc(-c2cccc(F)c2)sc1C(=O)N[C@H]1CCCNC1 [AZD7762] ?
Result :: label 1

Query :: Which drug sensitivity score band matches NC(=O)c1cccc(-c2cccc(OC(=O)NC3CCCCC3)c2)c1 [URB597] ?
Result :: label 0

Query :: Which drug sensitivity score band matches Cc1c(F)cc(C(=O)NC2CC2)cc1-c1ccc(C(=O)NCC(C)(C)C)cn1 [Losmapimod] ?
Result :: label 0

Query :: Which drug sensitivity score band matches COc1ccc2[nH]cc(/C=C3\C(=O)Nc4ccc(NC(=O)CCN5CCCCC5)cc43)c2c1 ?
Result :: label 1

Query :: Which drug sensitivity score band matches CC(C)c1cc(-c2n[nH]c(=O)n2-c2ccc3c(ccn3C)c2)c(O)cc1O [Ganetespib] ?
Result :: label 2

Query :: Which drug sensitivity score band matches CC#CC(=O)N1CCC[C@H]1c1nc(-c2ccc(C(=O)Nc3ccccn3)cc2)c2c(N)nccn12 [Acalabrutinib] ?
Result :: label 0

Query :: Which drug sensitivity score band matches COC[C@H](NC(=O)c1cnc(C)s1)C(=O)N[C@@H](COC)C(=O)N[C@@H](Cc1ccccc1)C(=O)[C@@]1(C)CO1 [Oprozomib] ?
Result :: label 2

Query :: Which drug sensitivity score band matches CCCOc1ccn2c(C(C)=O)cc(-c3ccccc3S(C)(=O)=O)c2c1 [GSK2801] ?
Result :: label 0

Query :: Which drug sensitivity score band matches CO[C@H]1C[C@@H]2CC[C@@H](C)[C@@](O)(O2)C(=O)C(=O)N2CCCC[C@H]2C(=O)O[C@H]([C@H](C)C[C@@H]2CC[C@@H](OP(C)(C)=O)[C@H](OC)C2)CC(=O)[C@H](C)/C=C(\C)[C@@H](O)[C@@H](OC)C(=O)[C@H](C)C[C@H](C)/C=C/C=C/C=C/1C [Ridaforolimus] ?
Result :: label 2

Query :: Which drug sensitivity score band matches O=C(Nc1cccnc1)N1CCC(Cc2cccc(Oc3ccc(C(F)(F)F)cn3)c2)CC1 [PF-3845] ?
Result :: label 0

Query :: Which drug sensitivity score band matches COc1cc2c(NC3CCN(C(C)C)CC3)nc(C3CCCCC3)nc2cc1OCCCN1CCCC1 [UNC0638] ?
Result :: label 0

Query :: Which drug sensitivity score band matches C[C@H]1CNCCCN1S(=O)(=O)c1cccc2cncc(F)c12 [Ripasudil] ?
Result :: label 0

Query :: Which drug sensitivity score band matches CNC(=O)c1cccc(-c2ccc3c(N4CCOC[C@@H]4C)nc(N4CCOC[C@@H]4C)nc3n2)c1 [Vistusertib] ?
Result :: label 2

Query :: Which drug sensitivity score band matches NC(=O)/C(=C/n1cnc(-c2cc(C(F)(F)F)cc(C(F)(F)F)c2)n1)c1cncnc1 [Eltanexor] ?
Result :: label 2

Query :: Which drug sensitivity score band matches O=C(c1cc(Cc2n[nH]c(=O)c3ccccc23)ccc1F)N1CCN(C(=O)C2CC2)CC1 [Olaparib] ?
Result :: label 1

---

Assign drug sensitivity score to each entry below.
# Test system: HOSE2C
# PROTOCOL: drug sensitivity score (DSS) from 5-point dose-response viability curve (DSS (area-under-curve based score)); higher = more sensitive (stronger growth inhibition or killing); extreme values may be limits of the assay
# RUN_PARAMETERS: exposure time: 72 h; concentration range: 5 concentrations over 10,000-fold range

Query :: Given the compound O=C(Nc1nc2cccc(-c3ccc(CN4CCS(=O)(=O)CC4)cc3)n2n1)C1CC1 , write its reported drug sensitivity score.
Result :: 0

Query :: Given the compound COc1ccc(-c2ccc3c(N4CCOC[C@@H]4C)nc(N4CCOC[C@@H]4C)nc3n2)cc1CO , write its reported drug sensitivity score.
Result :: 16.2

Query :: Given the compound COc1ccc(-c2nc(N3CCOCC3)c3sc(CN(C)c4ncc(C(=O)NO)cn4)cc3n2)cn1 , write its reported drug sensitivity score.
Result :: 42.7

Query :: Given the compound COc1cc2nccc(Oc3ccc(NC(=O)NC4CC4)c(Cl)c3)c2cc1C(N)=O , write its reported drug sensitivity score.
Result :: 2.9

Query :: Given the compound CC(=O)N(O)CCCCCNC(=O)CCC(=O)N(O)CCCCCNC(=O)CCC(=O)N(O)CCCCCN , write its reported drug sensitivity score.
Result :: 0

Query :: Given the compound CCn1c(-c2nonc2N)nc2c(C#CC(C)(C)O)ncc(OC[C@H]3CCCNC3)c21 , write its reported drug sensitivity score.
Result :: 3.7

Query :: Given the compound COc1cc2nccc(Oc3ccc(NC(=O)Nc4cc(C)on4)c(Cl)c3)c2cc1OC , write its reported drug sensitivity score.
Result :: 6.8

Query :: Given the compound CNC(=O)c1ccccc1Nc1nc(Nc2ccc3c(c2OC)CCC[C@H](N2CCN(CCO)CC2)C3)ncc1Cl , write its reported drug sensitivity score.
Result :: 8.4

Query :: Given the compound CC1CCC(n2c3cnccc3c3cnc(Nc4ccc5c(n4)CCN(C(=O)CO)C5)nc32)CC1 (stereo not drawn) , write its reported drug sensitivity score.
Result :: 0

Query :: Given the compound O=C(O)c1ccc(CN2CCC(CN[C@@H]3C[C@H]3c3ccccc3)CC2)cc1 , write its reported drug sensitivity score.
Result :: 0

Query :: Given the compound CC(C)n1cnc2c(NCCc3ccc(O)cc3)nc(-c3csc4ccccc34)nc21 , write its reported drug sensitivity score.
Result :: 2.2

Query :: Given the compound Cc1ccc(NC(=O)c2ccc(CN3CCN(C)CC3)cc2)cc1Nc1nc(-c2cccnc2)cs1 , write its reported drug sensitivity score.
Result :: 1.3

Query :: Given the compound N#Cc1ccnc(N2C(=O)CC[C@H]2C(=O)N(c2cncc(F)c2)[C@H](C(=O)NC2CC(F)(F)C2)c2ccccc2Cl)c1 , write its reported drug sensitivity score.
Result :: 0

Query :: Given the compound CNCc1ccc(-c2[nH]c3cc(F)cc4c3c2CCNC4=O)cc1 , write its reported drug sensitivity score.
Result :: 0

Query :: Given the compound Cc1c(F)cc(C(=O)NC2CC2)cc1-c1ccc(C(=O)NCC(C)(C)C)cn1 , write its reported drug sensitivity score.
Result :: 0

Query :: Given the compound C[C@]1(c2nc3c(C(N)=O)cccc3[nH]2)CCCN1 , write its reported drug sensitivity score.
Result :: 0

Query :: Given the compound O=c1[nH]cc(F)c(=O)[nH]1 , write its reported drug sensitivity score.
Result :: 0

Query :: Given the compound COc1cc2ncnc(Nc3ccc(F)c(Cl)c3)c2cc1OCCCN1CCOCC1 , write its reported drug sensitivity score.
Result :: 0.3

Query :: Given the compound COc1cc(C)[nH]c(=O)c1CNC(=O)c1c(C)n([C@H](C)C2CCOCC2)c2ccccc12 , write its reported drug sensitivity score.
Result :: 0

Query :: Given the compound CN(C)C[C@@H]1CCn2cc(c3ccccc32)C2=C(C(=O)NC2=O)c2cn(c3ccccc23)CCO1 , write its reported drug sensitivity score.
Result :: 6.2

Query :: Given the compound CCCS(=O)(=O)Nc1ccc(F)c(C(=O)c2c[nH]c3ncc(-c4ccc(Cl)cc4)cc23)c1F , write its reported drug sensitivity score.
Result :: 1.1

Query :: Given the compound COc1cc2ncnc(Nc3cccc(Cl)c3F)c2cc1OC(=O)N1CCN(C)C[C@H]1C , write its reported drug sensitivity score.
Result :: 0

Query :: Given the compound Cc1ccc(-n2nc(C(C)(C)C)cc2NC(=O)Nc2ccc(OCCN3CCOCC3)c3ccccc23)cc1 , write its reported drug sensitivity score.
Result :: 2.9

---

Assign drug sensitivity score to each entry below.
# System: OVCAR8
# PROTOCOL: drug sensitivity score (DSS) from 5-point dose-response viability curve (DSS (area-under-curve based score)); higher = more sensitive (stronger growth inhibition or killing); extreme values may be limits of the assay
# RUN_PARAMETERS: exposure time: 72 h; concentration range: 5 concentrations over 10,000-fold range
Simply state the number, no unit and no words.

Query :: Given the compound CN1CC[C@H](c2c(O)cc(O)c3c(=O)cc(-c4ccccc4Cl)oc23)[C@H](O)C1 , write its reported drug sensitivity score.
Result :: 17.8

Query :: Given the compound C[C@]12C=CC(=O)C=C1CC[C@@H]1[C@@H]2[C@@H](O)C[C@@]2(C)[C@H]1CC[C@]2(O)C(=O)CO , write its reported drug sensitivity score.
Result :: 0.1

Query :: Given the compound O=C1NC(=O)[C@@H](c2cn3c4c(cccc24)CCC3)[C@@H]1c1c[nH]c2ccccc12 [Tivantinib] , write its reported drug sensitivity score.
Result :: 4.1

Query :: Given the compound COc1cc2c(cc1-c1c(C)noc1C)ncc1[nH]c(=O)n([C@H](C)c3ccccn3)c12 , write its reported drug sensitivity score.
Result :: 9.5

Query :: Given the compound CC/C(=C(\c1ccc(O)cc1)c1ccc(OCCN(C)C)cc1)c1ccccc1 [4-hydroxytamoxifen] , write its reported drug sensitivity score.
Result :: 2.6

Query :: Given the compound CC(C)Cn1cnc2c(N)nc3ccccc3c21 , write its reported drug sensitivity score.
Result :: 0.1

Query :: Given the compound C[C@H]1C[C@@H]2[C@H]([C@@H](O)C[C@@]3(C)[C@H]2CC[C@]3(O)C(=O)CO)[C@@]2(C)C=CC(=O)C=C12 , write its reported drug sensitivity score.
Result :: 0.2

Query :: Given the compound CNC(=O)c1ccc(N2C(=S)N(c3cnc(C#N)c(C(F)(F)F)c3)C(=O)C23CCC3)cc1F [Apalutamide] , write its reported drug sensitivity score.
Result :: 0

Query :: Given the compound Cc1cc2c(F)c(Oc3ncnn4cc(OC[C@@H](C)O)c(C)c34)ccc2[nH]1 , write its reported drug sensitivity score.
Result :: 0

Query :: Given the compound COc1cc2/c(=N/c3ccc(Br)cc3F)nc[nH]c2cc1OCC1CCN(C)CC1 , write its reported drug sensitivity score.
Result :: 0

Query :: Given the compound Nc1cc(F)ccc1NC(=O)/C=C/c1cnn(C/C=C/c2ccccc2)c1 , write its reported drug sensitivity score.
Result :: 2.3

Query :: Given the compound Cc1nc(=O)c2cc(CN(C)c3ccc(C(=O)N[C@@H](CCC(=O)O)C(=O)O)s3)ccc2[nH]1 , write its reported drug sensitivity score.
Result :: 18.4

Query :: Given the compound Cc1ccc(Nc2nccc(N(C)c3ccc4c(C)n(C)nc4c3)n2)cc1S(N)(=O)=O , write its reported drug sensitivity score.
Result :: 0

Query :: Given the compound CO[C@@H](C(=O)N1Cc2[nH]nc(NC(=O)c3ccc(N4CCN(C)CC4)cc3)c2C1)c1ccccc1 , write its reported drug sensitivity score.
Result :: 8.7
